// provenance: patent US20240316022A1

Molecular target: FGFR2 (Homo sapiens, UniProt P21802)
Construct: made in house; host or cells: E. coli derived from BL21, infected with T7 phage
Sequence (P21802 22-821): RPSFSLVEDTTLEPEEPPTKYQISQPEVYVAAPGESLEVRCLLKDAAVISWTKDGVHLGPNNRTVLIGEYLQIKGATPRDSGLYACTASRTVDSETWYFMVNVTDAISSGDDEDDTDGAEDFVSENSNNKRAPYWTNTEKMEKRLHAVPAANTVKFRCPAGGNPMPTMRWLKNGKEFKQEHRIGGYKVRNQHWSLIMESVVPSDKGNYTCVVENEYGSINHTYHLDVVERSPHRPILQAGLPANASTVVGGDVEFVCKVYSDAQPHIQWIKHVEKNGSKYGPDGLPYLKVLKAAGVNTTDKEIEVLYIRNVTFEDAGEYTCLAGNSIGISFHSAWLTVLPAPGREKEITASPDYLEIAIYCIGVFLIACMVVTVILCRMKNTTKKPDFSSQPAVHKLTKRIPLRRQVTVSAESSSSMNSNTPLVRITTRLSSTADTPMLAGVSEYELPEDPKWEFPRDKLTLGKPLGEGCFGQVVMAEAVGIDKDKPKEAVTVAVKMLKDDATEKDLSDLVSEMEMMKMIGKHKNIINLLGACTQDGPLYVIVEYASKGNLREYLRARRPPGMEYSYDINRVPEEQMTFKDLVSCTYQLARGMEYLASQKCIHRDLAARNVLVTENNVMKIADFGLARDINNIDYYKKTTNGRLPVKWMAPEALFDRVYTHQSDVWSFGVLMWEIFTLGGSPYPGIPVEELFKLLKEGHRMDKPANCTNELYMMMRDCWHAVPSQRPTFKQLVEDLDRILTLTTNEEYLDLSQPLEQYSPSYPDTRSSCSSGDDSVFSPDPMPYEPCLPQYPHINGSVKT
Assay: Kinase binding assay (kinase-tagged T7 phage, qPCR), Kd
Conditions: read-out: FGFR2 (Kd nM)
Hi there, I'd appreciate the recorded Kd for every entry that follows.

Look over these answered cases.
• C[C@@H](Oc1ccc2[nH]nc(-c3ccc(NC(=O)N4CCC(O)C4)nc3)c2c1)c1c(Cl)cncc1Cl (stereo partly shown) = 0.1 to 100 nM
• CCN1CCC2(CC1)CC(=O)c1cc(-c3n[nH]c4ccc(O[C@H](C)c5c(C)cnnc5C)cc34)ccc1O2 = 0.1 to 100 nM
• C[C@@H](Oc1ccc2[nH]nc(-c3ccc(NC(=O)N4CCOCC4)nc3)c2c1)c1c(Cl)cncc1Cl = 0.1 to 100 nM

I am curious: what Kd value has been reported for Cc1cc(-c2n[nH]c3ccc(O[C@@H](C)c4c(C)cnnc4C)cc23)cc(C#N)n1 ?
> 1000 nM
